Assay: compound enhancement of TRAIL-induced cell killing – NB7 cells plus caspase-8, luminescence, panel, dose response (AID 652002)
Settings: NB7 neuroblastoma +caspase-8, no TRAIL, compound-alone cytotoxicity counter-screen, luminescence viability; NB7+Caspase-8; mean of runs
Activity calls are given as the source filed them. No rule for the calls is given here.
observation-type: EC50

molecule=Cc1c(P(=S)(c2ccccc2)c2ccccc2)[n+]2ccccc2n1CCc1ccccc1 observation_type=EC50 measured="> 12.5 µM (inactive)"
molecule=CCOC(=O)c1cnc2c(-c3ccccc3)cnn2c1N observation_type=EC50 measured="> 12.5 µM (inactive)"
molecule=CSc1ccc(/C=C/c2ccc3cccc(O)c3n2)cc1 observation_type=EC50 measured=inactive
molecule=Cc1onc(-c2c(Cl)cccc2Cl)c1C(=O)ONC(=O)c1ccccc1 observation_type=EC50 measured="> 12.5 µM (inactive)"
molecule="CCC(C)c1ccc(O)c(NC(=S)NC(=O)c2cccs2)c1 (configuration not stated)" observation_type=EC50 measured=inactive
molecule=CC1(C)N=C(N)N=C(N)N1c1ccc(CCCCc2ccccc2)cc1 observation_type=EC50 measured=inactive
molecule=CC(C)Cc1nc2oc3c(Cl)ncnc3c2c2c1CCCC2 observation_type=EC50 measured="> 12.5 µM (inactive)"
molecule=COc1cc(NC(=O)c2cncc(-c3ccc(C#N)cc3)c2)cc(C(=O)Nc2cccc(C(F)(F)F)c2)c1 observation_type=EC50 measured="> 12.5 µM (inactive)"
molecule=COC(=O)[C@]12CCCCC=C1N(Cc1cccc3ccccc13)C(=O)[C@H](CC(=O)NCc1ccc(OC)c(OC)c1)C2 observation_type=EC50 measured=inactive
molecule=C/C(=N\NC(=O)c1n[nH]c2c1CCC2)c1ccco1 observation_type=EC50 measured="> 12.5 µM (inactive)"
molecule=O=C1c2ccc3c4c(ccc(c24)C(=O)N1c1cccc(O)c1)C(=O)N(c1cccc(O)c1)C3=O observation_type=EC50 measured="> 12.5 µM (inactive)"
molecule="O=C(NCC1CCCO1)c1ccc2c3n(nc2c1)-c1ccccc1CO3 (configuration not stated)" observation_type=EC50 measured="> 12.5 µM (inactive)"
molecule=CCOC(=O)c1sc(NC(=O)Nc2ccc(F)cc2)nc1C observation_type=EC50 measured="> 12.5 µM (inactive)"
molecule=O=C(ONC1=NCCCCC1)c1ccc(Cl)cc1 observation_type=EC50 measured=inactive
molecule=CCCCCCCn1c2c(c(=N)c3ccccc31)CCC2 observation_type=EC50 measured="> 12.5 µM (inactive)"
molecule=Cc1cccc(CC(=O)Nc2cc(C)c3c(=O)oc4ccccc4c3n2)c1 observation_type=EC50 measured="> 12.5 µM (inactive)"
molecule=Cc1cc(-c2ccccc2)nc(Nc2nc3c(C)cccc3c(=O)[nH]2)n1 observation_type=EC50 measured="> 12.5 µM (inactive)"
molecule=CCCC1(CCC)C(=O)NC(=NCc2ccccc2)NC1=O observation_type=EC50 measured="> 12.5 µM (inactive)"
molecule=Cc1cc2nc(-c3ccc(SCC(=O)Nc4nccs4)nc3)[nH]c2cc1C observation_type=EC50 measured="> 12.5 µM (inactive)"
molecule=O=C(NNC(=O)c1cc(OCC(F)(F)F)ccc1OCC(F)(F)F)c1ccc(Cl)c(Cl)c1 observation_type=EC50 measured="> 12.5 µM (inactive)"
molecule=COc1cccc(N/C=C/C(=O)c2ccc(Cl)cc2)c1 observation_type=EC50 measured=inactive
molecule=Cc1ccnc(NC(=O)Nc2ccc3c(c2)OCO3)c1 observation_type=EC50 measured="> 12.5 µM (inactive)"
